Just for reference, ChEMBL document CHEMBL5058564 is where these values come from.

- Tested on: HEK-293T
- assay-text: Incucyte cell viability with HEK293T; further: unitless GR value; below 1 slowed growth and below 0 cell loss
- Type: toxicity, cell-based
- condition-description: human, 6 h, 10 µM, compound concentration 10 uM, replicate number 2, timepoint 6 hours
recorded-endpoint: Growth Rate
Lab note: record just the number, no unit beside it.

IN: # return recorded Growth Rate for entry `Cn1cc(-c2ccc3occ(-c4cccc(-c5ccncc5)c4)c3n2)cn1`
OUT: -0.61

IN: # return recorded Growth Rate for entry `COc1cc(Nc2ncc3c(n2)-c2ccc(Cl)cc2C(c2c(F)cccc2OC)=NC3)ccc1C(=O)O`
OUT: 0.03

IN: # return recorded Growth Rate for entry `Cn1cnc(-c2cc3nccc(Oc4ccc(NC(=S)NC(=O)Cc5ccccc5)cc4F)c3s2)c1`
OUT: -0.26
